target: Cannabinoid receptor 2 (Homo sapiens, UniProt P34972); assay: Agonist activity at human recombinant cannabinoid CB2 receptor expressed in MMY23 Saccharomyces cerevisiae assessed as degradation of FDGlu to fluorescein after 24 hrs by spectrofluorimetry; format: functional
Sequence (P34972 whole entry): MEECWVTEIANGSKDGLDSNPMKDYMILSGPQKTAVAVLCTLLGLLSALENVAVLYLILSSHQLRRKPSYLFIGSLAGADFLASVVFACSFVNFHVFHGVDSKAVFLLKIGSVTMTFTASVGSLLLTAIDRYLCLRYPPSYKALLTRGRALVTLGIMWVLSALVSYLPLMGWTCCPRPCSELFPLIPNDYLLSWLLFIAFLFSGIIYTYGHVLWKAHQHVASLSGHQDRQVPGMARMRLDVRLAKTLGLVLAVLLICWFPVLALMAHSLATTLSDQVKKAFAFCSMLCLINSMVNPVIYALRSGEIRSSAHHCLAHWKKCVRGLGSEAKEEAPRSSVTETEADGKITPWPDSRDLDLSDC
Parameter: EC50. Scope: all listed entries.
assayEndpoint: EC50 (nM)

smilesInput	target	reading
COc1cccc(Nc2ncc(C(=O)N3CCOCC3)c3c(C)c[nH]c23)c1	Cannabinoid receptor 2 (Homo sapiens, UniProt P34972)	48
Cc1c[nH]c2c(Nc3cccc(Cl)c3)ncc(C(=O)N3CCCCC3)c12	Cannabinoid receptor 2 (Homo sapiens, UniProt P34972)	14
Cc1c[nH]c2c(Nc3cccc(Cl)c3)ncc(C(=O)N3CCOCC3)c12	Cannabinoid receptor 2 (Homo sapiens, UniProt P34972)	11
CCC(CC)Nc1ncc(C(=O)N2CCOCC2)c2c(C)c[nH]c12	Cannabinoid receptor 2 (Homo sapiens, UniProt P34972)	4670
Cc1c[nH]c2c(Nc3cccc(Cl)c3)ncc(C(=O)NC3CCOCC3)c12	Cannabinoid receptor 2 (Homo sapiens, UniProt P34972)	1700
Cc1c[nH]c2c(Nc3ccccc3Cl)ncc(C(=O)N3CCOCC3)c12	Cannabinoid receptor 2 (Homo sapiens, UniProt P34972)	123
Cn1ccc2c(Nc3cccc(Cl)c3)ncc(C(=O)N3CCOCC3)c21	Cannabinoid receptor 2 (Homo sapiens, UniProt P34972)	5
Cc1c[nH]c2c(Nc3cccc(Cl)c3)ncc(C(=O)N3CCC3)c12	Cannabinoid receptor 2 (Homo sapiens, UniProt P34972)	504
COc1ccccc1Nc1ncc(C(=O)N2CCOCC2)c2c(C)c[nH]c12	Cannabinoid receptor 2 (Homo sapiens, UniProt P34972)	349
Cc1c[nH]c2c(Nc3cccc(Cl)c3)ncc(C(=O)NCc3ccc(F)cc3)c12	Cannabinoid receptor 2 (Homo sapiens, UniProt P34972)	145
Cc1c[nH]c2c(NC3CCOCC3)ncc(C(=O)N3CCOCC3)c12	Cannabinoid receptor 2 (Homo sapiens, UniProt P34972)	3300
Cc1c[nH]c2c(Nc3cccc(Cl)c3)ncc(C(=O)NCC3CCOCC3)c12	Cannabinoid receptor 2 (Homo sapiens, UniProt P34972)	265
Cc1c[nH]c2c(Nc3cccc(C(F)(F)F)c3)ncc(C(=O)N3CCOCC3)c12	Cannabinoid receptor 2 (Homo sapiens, UniProt P34972)	15

###

Parameter: EC50. Scope: all listed entries.
molecular target: Cannabinoid receptor 1 (Homo sapiens); assay: Agonist activity at human recombinant cannabinoid CB1 receptor expressed in MMY23 Saccharomyces cerevisiae assessed as degradation of FDGlu to fluorescein after 24 hrs by spectrofluorimetry; format: functional

smilesInput	target	resultOperator	EC50 (µM)
Cn1ccc2c(Nc3cccc(Cl)c3)ncc(C(=O)N3CCOCC3)c21	Cannabinoid receptor 1 (Homo sapiens)	=	6.3
Cc1c[nH]c2c(Nc3cccc(Cl)c3)ncc(C(=O)N3CCCCC3)c12	Cannabinoid receptor 1 (Homo sapiens)	=	4
Cc1c[nH]c2c(Nc3ccccc3Cl)ncc(C(=O)N3CCOCC3)c12	Cannabinoid receptor 1 (Homo sapiens)	=	15.8
Cc1c[nH]c2c(Nc3cccc(Cl)c3)ncc(C(=O)N3CCC3)c12	Cannabinoid receptor 1 (Homo sapiens)	>	30
Cc1c[nH]c2c(Nc3cccc(Cl)c3)ncc(C(=O)N3CCOCC3)c12	Cannabinoid receptor 1 (Homo sapiens)	=	10

###

test: Dissociation constant, pKa of the compound; type: physicochemical
Parameter: pKa. Scope: all listed entries.
assayEndpoint: pKa

smilesInput	assayEndpoint	reading
Cn1ccc2c(Nc3cccc(Cl)c3)ncc(C(=O)N3CCOCC3)c21	pKa	6.1
Cc1c[nH]c2c(Nc3cccc(Cl)c3)ncc(C(=O)N3CCOCC3)c12	pKa	5.8

###

Parameter: Ratio EC50. Scope: all listed entries.
organism: Homo sapiens; test: Selectivity ratio of EC50 for human recombinant cannabinoid CB1 receptor to EC50 for human recombinant cannabinoid CB2 receptor

smilesInput	Ratio EC50
Cn1ccc2c(Nc3cccc(Cl)c3)ncc(C(=O)N3CCOCC3)c21	1200
Cc1c[nH]c2c(Nc3cccc(C(F)(F)F)c3)ncc(C(=O)N3CCOCC3)c12	> 100
Cc1c[nH]c2c(Nc3cccc(Cl)c3)ncc(C(=O)N3CCOCC3)c12	1000
COc1ccccc1Nc1ncc(C(=O)N2CCOCC2)c2c(C)c[nH]c12	> 100
Cc1c[nH]c2c(Nc3ccccc3Cl)ncc(C(=O)N3CCOCC3)c12	> 100
Cc1c[nH]c2c(Nc3ccccc3OC(C)C)ncc(C(=O)N3CCOCC3)c12	> 100

###

target: UniProt:P34972; assay: Agonist activity at human recombinant cannabinoid CB2 receptor expressed in MMY23 Saccharomyces cerevisiae assessed as degradation of FDGlu to fluorescein after 24 hrs by spectrofluorimetry; type: functional
Parameter: log10 of EC50. Scope: all listed entries.
assayEndpoint: log10 of EC50 (log10 of the value in nM)

smilesInput	assayEndpoint	reading
Cc1c[nH]c2c(Nc3cccc(Cl)c3)ncc(C(=O)N3CCCCCC3)c12	log10 of EC50	2.03
Cc1c[nH]c2c(Nc3cccc(Cl)c3)ncc(C(=O)N3CCCC3)c12	log10 of EC50	2.18
Cc1cn(C)c2c(Nc3cccc(Cl)c3)ncc(C(=O)N3CCOCC3)c12	log10 of EC50	2.82
Cc1c[nH]c2c(Nc3cccc(Br)c3)ncc(C(=O)N3CCOCC3)c12	log10 of EC50	1.00
Cc1c[nH]c2c(Nc3ccccc3OC(C)C)ncc(C(=O)N3CCOCC3)c12	log10 of EC50	2.27

###

test: Ratio of drug level in brain to blood in rat 130 mg/kg, po after 5 hrs; assay type: ADME, organism-based; parameters: dose 130 mg/kg, route oral

smilesInput	Kp at 5 h
Cn1ccc2c(Nc3cccc(Cl)c3)ncc(C(=O)N3CCOCC3)c21	1

###

assay: Ratio of drug level in brain to blood in rat 130 mg/kg, po after 1 hr; assay type: ADME, organism-based; parameters: dose 130 mg/kg, route oral
assayEndpoint: Kp at 1 h

smilesInput	assayEndpoint	reading
Cn1ccc2c(Nc3cccc(Cl)c3)ncc(C(=O)N3CCOCC3)c21	Kp at 1 h	1

###

Parameter: Efficacy. Scope: all listed entries.
target: Cannabinoid receptor 1 (Homo sapiens, UniProt P21554); assay: Agonist activity at human recombinant cannabinoid CB1 receptor expressed in MMY23 Saccharomyces cerevisiae assessed as degradation of FDGlu to fluorescein after 24 hrs by spectrofluorimetry relative to HU210; assay type: functional
Sequence (P21554 whole entry): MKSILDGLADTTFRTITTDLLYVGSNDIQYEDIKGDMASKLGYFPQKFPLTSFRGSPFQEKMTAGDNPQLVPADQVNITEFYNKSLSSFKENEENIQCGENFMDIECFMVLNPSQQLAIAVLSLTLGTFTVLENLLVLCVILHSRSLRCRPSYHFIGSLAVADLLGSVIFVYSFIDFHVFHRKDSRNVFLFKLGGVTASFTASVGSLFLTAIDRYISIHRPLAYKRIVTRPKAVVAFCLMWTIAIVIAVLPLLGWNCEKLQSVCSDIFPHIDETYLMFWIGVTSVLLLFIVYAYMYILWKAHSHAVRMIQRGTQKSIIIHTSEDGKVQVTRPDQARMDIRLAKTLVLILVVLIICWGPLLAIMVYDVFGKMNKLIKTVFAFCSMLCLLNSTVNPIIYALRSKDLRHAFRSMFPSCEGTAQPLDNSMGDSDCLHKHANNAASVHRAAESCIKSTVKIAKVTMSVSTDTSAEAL
assayEndpoint: Efficacy (%)

smilesInput	reading
Cc1c[nH]c2c(Nc3cccc(Cl)c3)ncc(C(=O)N3CCOCC3)c12	74
COc1cccc(Nc2ncc(C(=O)N3CCOCC3)c3c(C)c[nH]c23)c1	69
Cc1c[nH]c2c(Nc3ccccc3Cl)ncc(C(=O)N3CCOCC3)c12	56
Cc1c[nH]c2c(Nc3cccc(Br)c3)ncc(C(=O)N3CCOCC3)c12	43
Cn1ccc2c(Nc3cccc(Cl)c3)ncc(C(=O)N3CCOCC3)c21	88
Cc1cn(C)c2c(Nc3cccc(Cl)c3)ncc(C(=O)N3CCOCC3)c12	45
Cc1c[nH]c2c(Nc3cccc(Cl)c3)ncc(C(=O)N3CCCCC3)c12	32

###

Parameter: pEC50. Scope: all listed entries.
molecular target: Cannabinoid receptor 1 (Homo sapiens, UniProt P21554); test: Agonist activity at human recombinant cannabinoid CB1 receptor expressed in MMY23 Saccharomyces cerevisiae assessed as degradation of FDGlu to fluorescein after 24 hrs by spectrofluorimetry
pEC50: −log10 of the molar value.

compound	pEC50
Cc1c[nH]c2c(Nc3cccc(Cl)c3)ncc(C(=O)N3CCCCCC3)c12	< 4.52
O=C(NCC1CCOCC1)c1cnc(Nc2ccc(Cl)cc2Cl)nc1C(F)(F)F [GW842166X]	< 4.52
Cc1c[nH]c2c(Nc3ccccc3OC(C)C)ncc(C(=O)N3CCOCC3)c12	< 4.52
Cc1c[nH]c2c(Nc3cccc(Br)c3)ncc(C(=O)N3CCOCC3)c12	5.20
Cc1c[nH]c2c(Nc3cccc(Cl)c3)ncc(C(=O)NC3CCOCC3)c12	< 4.52

###

target: Cannabinoid receptor 2 (Homo sapiens, UniProt P34972); experiment: Agonist activity at human recombinant cannabinoid CB2 receptor expressed in MMY23 Saccharomyces cerevisiae assessed as degradation of FDGlu to fluorescein after 24 hrs by spectrofluorimetry relative to HU210; format: functional
assayEndpoint: Efficacy

smilesInput	assayEndpoint	reading
COc1cccc(Nc2ncc(C(=O)N3CCOCC3)c3c(C)c[nH]c23)c1	Efficacy	83%
Cc1c[nH]c2c(Nc3cccc(Cl)c3)ncc(C(=O)N3CCCC3)c12	Efficacy	68%
Cc1c[nH]c2c(Nc3ccccc3Cl)ncc(C(=O)N3CCOCC3)c12	Efficacy	82%
Cc1c[nH]c2c(Nc3cccc(C(F)(F)F)c3)ncc(C(=O)N3CCOCC3)c12	Efficacy	86%
Cc1c[nH]c2c(Nc3cccc(Cl)c3)ncc(C(=O)NCC3CCOCC3)c12	Efficacy	95%
COc1ccccc1Nc1ncc(C(=O)N2CCOCC2)c2c(C)c[nH]c12	Efficacy	72%
Cc1cn(C)c2c(Nc3cccc(Cl)c3)ncc(C(=O)N3CCOCC3)c12	Efficacy	47%
Cn1ccc2c(Nc3cccc(Cl)c3)ncc(C(=O)N3CCOCC3)c21	Efficacy	91%
Cc1c[nH]c2c(Nc3cccc(Cl)c3)ncc(C(=O)NC3CCOCC3)c12	Efficacy	79%
Cc1c[nH]c2c(NC3CCOCC3)ncc(C(=O)N3CCOCC3)c12	Efficacy	84%
Cc1c[nH]c2c(Nc3cccc(Br)c3)ncc(C(=O)N3CCOCC3)c12	Efficacy	78%
Cc1c[nH]c2c(Nc3ccccc3OC(C)C)ncc(C(=O)N3CCOCC3)c12	Efficacy	73%
Cc1c[nH]c2c(Nc3cccc(Cl)c3)ncc(C(=O)N3CCCCCC3)c12	Efficacy	76%
Cc1c[nH]c2c(Nc3cccc(Cl)c3)ncc(C(=O)N3CCCCC3)c12	Efficacy	73%
CCC(CC)Nc1ncc(C(=O)N2CCOCC2)c2c(C)c[nH]c12	Efficacy	59%
Cc1c[nH]c2c(Nc3cccc(Cl)c3)ncc(C(=O)N3CCC3)c12	Efficacy	66%
Cc1c[nH]c2c(Nc3cccc(Cl)c3)ncc(C(=O)N3CCOCC3)c12	Efficacy	82%
Cc1c[nH]c2c(Nc3cccc(Cl)c3)ncc(C(=O)NCc3ccc(F)cc3)c12	Efficacy	58%
